# System: Plasmodium berghei
# ASSAY: Screen against P. berghei liver stage (PbLuc), transformed with Luciferase, at 10uM
# Assay type: functional, HepG2
# CONDITION: tested at 10 uM
The whole screen tested about 69,000 compounds, of which about 8,600 (12%) showed an effect of 50% or more. The entries come from a sample that favours strong results as a whole.
Labelling field: enter 1 if recorded INHIBITION is less than 20%. Enter -1 if it equals or exceeds that cut-off.

Please review the following examples before continuing.
{"COMPOUND": "CN1CC2(CCC(C(=O)N3CCOCC3)CC2)Oc2ccccc2C1=O (configuration not stated)", "TARGET_DESC": "Plasmodium berghei", "LABEL": 1}
{"COMPOUND": "CCc1c(O)n(C(C)CC)c(SCC(=O)c2ccccc2)nc1=O (configuration not stated)", "TARGET_DESC": "Plasmodium berghei", "LABEL": -1}
{"COMPOUND": "CN(C)c1cc(CC(NC(=O)C2CC2)c2ccccc2)nc(C2CC2)n1 (configuration not stated)", "TARGET_DESC": "Plasmodium berghei", "LABEL": -1}
{"COMPOUND": "CCc1c(O)nc(SCC(=O)Nc2ccccc2)n(C(C)CC)c1=O (configuration not stated)", "TARGET_DESC": "Plasmodium berghei", "LABEL": -1}
{"COMPOUND": "Cc1nc(CNCc2ccc(N3CCC(CO)CC3)nc2)cs1", "TARGET_DESC": "Plasmodium berghei", "LABEL": 1}

Switching to the query record.
Exercise: I wonder whether `CNC(=O)NC(=O)CN(Cc1ccc(C#N)cc1)Cc1cccc(F)c1` has INHIBITION below 20%. Can you tell?
Solution: 1
